All values here come from patent US20260265391A1.

target: T1, cynomolgus CD40-Fc protein (cynomolgus, UniProt G7PG38 21-193); experiment: BLI (ForteBio), IgG on AHQ sensor, 100 nM CD40-Fc in solution, bivalent, 1:1 model
T1 construct: not shown: Fc part
Measurement Type: pKd
Please note pKd is a logarithmic value: minus log10 of concentration in mol/L. Answer with that number alone.

{"Binder": "ADI-55136 (antibody, human IgG1, kappa, V domains shown) VH: QVQLVESGGGVVQPGRSLRLSCAASGFTFSSYGMHWVRQAPGKGLEWVAVISYHASSKYYADSVKGRFTISRDNSKNTLYLQMNSLRAEDTAVYYCARDTSRGHDIWGQGTMVTVSS VL: EIVLTQSPGTLSLSPGERATLSCRASQSVSSSYLAWYQQKPGQAPRLLIYGASSRATGIPDRFSGSGSGTDFTLTISRLEPEDFAVYYCQQYADYPPFTFGGGTKVEIKR", "Experimental Value": 9.42}

API: the following record is the query input.
### Prompt Could you tell me which pKd is on file for ADI-47720 (antibody, human IgG1, kappa, V domains shown) VH: EVQLVESGGGLVQPGRSLRLSCAASGFTFDDYAMHWVRQAPGKGLEWVSGISWSSGSIGYADSVKGRFTISRDNAKNSLYLQMNSLRAEDTAVYYCAKDPTATTGARGYFDLWGRGTLVTVSS VL: DIQMTQSPSSVSASVGDRVTITCRASQGISSWLAWYQQKPGKAPKLLIYAASSLQSGVPSRFSGSGSGTDFTLTISSLQPEDFATYYCQQRASFPPTFGGGTKVEIKR ?
### Response 8.22
